Tested on: U-251
method_description: NCI tumour cell line growth inhibition, 48 h
Activity calls are given as the source filed them. Cut-off read from the data, not from the text of the source: active = GI50 up to about 1.1 µM and inactive = higher.
test_readout: GI50

Solved cases (5 shown):
# molecule, target, GI50
data = [
    ("CCCc1c(O)nc2ccccc2c1O", "U-251", "> 100 µM (inactive)"),
    ("COC(=O)C1=C(C(=O)OC)C2(C)OC1C(=O)C21CC1 (stereo unspecified)", "U-251", "> 100 µM (inactive)"),
    ("C=C1C(=O)[C@@]23CC[C@@H]4[C@@]5(C)CCC[C@@]4(OC5=O)[C@@]2(C)CC[C@@H]1C3", "U-251", "1.97 µM (inactive)"),
    ("CCOc1cc2cnc3c4cc(OC)c(OC)cc4ccc3c2cc1OC", "U-251", "6.4 µM (inactive)"),
    ("CCC(C)[C@H](NC(=O)N[C@H](C)c1ccccc1)C(=O)OC (stereo partly specified)", "U-251", "> 100 µM (inactive)"),
]

Turning to the following molecule.
[Q] What value of GI50 has been reported for the following molecule? CCC1C(=O)OCc2c1cc1n(c2=O)CCC12OCCO2 (stereo unspecified)
[A] > 100 µM (inactive)

Values were extracted from ChEMBL document CHEMBL1201862.
